- Test system: UO-31 renal
- test summary: NCI tumour cell line growth inhibition, 48 h
measure: TGI (µM)
Write down the numeric answer in µM and omit the unit.

Recorded results for 5 compounds are shown here.
COc1ccc2cc(CN3CCC(C4CCNCC4)CC3)ccc2c1 :: 6.29
C=C(OC1C(C)=C2C(C1OC(=O)CCCCCCC)C(C)(OC(C)=O)CC(OC(=O)CCC)C1(O)C2OC(=O)C1(C)O)/C(C)=C/C (stereo not given) :: 0.614
S=C(c1c[nH]c2ccccc12)N1CCN(Cc2ccccc2)CC1 :: 21.5
CCOC(=N)/C(=C1\OC(N)=C(c2ccc(Cl)cc2)C1=O)c1ccc(Cl)cc1 :: 31.3
Cc1csc(/N=C\c2c(O)c3ccccc3oc2=O)n1 :: 75.9

Now look at this one.
Record "O=C(OCc1ncc(-c2ccc(C(F)(F)F)cc2)c(NC2CCCCCC2)n1)c1c(F)c(F)c(F)c(F)c1F" . Reported TGI: 21.3

====

- Test system: KM20L2 colon
- test summary: NCI tumour cell line growth inhibition, 48 h
Parameter: TGI. Scope: all listed entries.

Record "Cn1c(=O)c2nc(-c3ccc(Cl)cc3)oc2n(C)c1=O" . Reported TGI: > 100 µM

Record CC(C)(C)C(=O)OC12/C(=N/O)CCCCCC1c1ccccc12 (stereo not drawn) . Reported TGI: 36.5 µM

Record CCOC(=O)CC1(c2cccc3ccccc23)OC(=O)c2ccccc21 (stereo not drawn) . Reported TGI: > 100 µM

====

- System: SK-MEL-5 melanoma
- test summary: NCI tumour cell line growth inhibition, 48 h
measure: TGI

O=[N+]([O-])c1ccc(C=NCC2CCCN3CCCCC23)cc1 (stereo unspecified) :: > 100 µM
COc1ccc(N2C=Nn3c(nc4sc5c(c4c3=O)CCCC5)C2)cc1 :: > 100 µM
CC(=O)N=C1N(/C=C2\C(=O)Oc3ccccc3C2=O)C(=O)/C(=C/c2ccc(NC(C)=O)cc2)N1C :: > 100 µM

Record COC(C)(C)C1(O)CCC(C)CC1=O (stereo unspecified) . Reported TGI: > 100 µM

Record "CCOC(=O)CNc1nc(=O)c2c(=O)oc(Cl)cc2o1" . Reported TGI: > 100 µM

Record "Clc1ccc(C(SCc2ccccc2)SCc2ccccc2)cc1" . Reported TGI: > 10 µM

Record "CC[C@H]1C=CCC[C@@]2(C[C@@H]3CC[C@H]4[C@@H](C(=O)OCCCCCCCCCCCCCCCC(=O)N(CCCN)C[C@@H](O)CCN)[C@@]5(CCC[C@@H](C)O5)NC(=[N+]34)N2)O1" . Reported TGI: 2.87 µM

Record "O=C(O)Cc1ccc2[nH]c(O)c(C3=Nc4ccccc4C3=O)c2c1" . Reported TGI: 55.6 µM

====

- Test system: OVCAR-8 ovarian
- test summary: NCI tumour cell line growth inhibition, 48 h; in the data active = GI50 below about 0.43 µM; inactive = the rest
Valid outcomes are listed here; reply with one: active, inactive

These solved cases illustrate the format of a correct answer.
CNC(=O)Cc1nc(-c2cccc(NS(=O)(=O)c3c(F)cccc3F)c2F)c(-c2ccnc(Nc3ccccc3)n2)s1 :: inactive
O=C(/C=C/c1ccccc1)n1c(-c2ccc(Cl)cc2)nc2ccccc21 :: inactive
Nc1nc(Cl)c(N=Nc2ccc(Cl)cc2)c(NCC2(CO)CCC2)n1 :: inactive

Status in this test for "COc1ccc(OC)c2c1[nH]c(=O)c1c3ncccc3cn21" ?
inactive

Status in this test for "O=Cc1ccc(-c2ccc(-c3nc4ccccc4o3)cc2)o1" ?
inactive

Status in this test for "COC(=O)Cc1ccc(Oc2cnc3cc(F)c(F)cc3n2)cc1" ?
inactive

Status in this test for "CN1C(=O)N[C@H]2[C@@H]3NC(=O)c4ccc(Br)n4[C@@H]3C[C@]21O" ?
active

Status in this test for Cc1cc(N2CCSCC2)nc(NC2CCCC(Nc3ccnc4cc(Cl)ccc34)C2)n1 (stereo not given) ?
inactive

Status in this test for "COC(=O)c1cc(O)c2c(c1C(=O)OC)C[C@H]1[C@@H]3CC=C4C[C@@H](O)CC[C@]4(C)[C@H]3CC[C@]21C" ?
inactive

Status in this test for "O=C(OCc1ncc(-c2ccc(C(F)(F)F)cc2)c(NC2CCCCCC2)n1)c1c(F)c(F)c(F)c(F)c1F" ?
inactive

This collection of values is drawn from PubChem BioAssay (NCI).
